Cited source for all entries: PubChem BioAssay (NCI)

Test system: UO-31 renal
Assay summary: NCI tumour cell line growth inhibition, 48 h
Listed here are compounds together with their documented TGI.
Measured attribute: TGI

[[record]]
compound = "COc1cc2c(cc1OC)[C@H]1CN3CCC[C@H]3C=C1c1ccc(OC)c(O)c1-2"
endpoint_result = "0.00324 µM"

[[record]]
compound = "Cc1ccc(C)c(N2C/C(=N\\NC(=O)CC#N)C(c3nc4ccccc4s3)C(=O)C2=O)c1 (stereo unspecified)"
endpoint_result = "> 100 µM"

[[record]]
compound = "O=[N+]([O-])c1ccc(/C=C/c2cc(-c3ccccc3)nc3ccc4ccccc4c23)cc1"
endpoint_result = "> 100 µM"

[[record]]
compound = "N#CCc1nc(-c2ccccc2)n[nH]1"
endpoint_result = "> 100 µM"

[[record]]
compound = "O=C(NCc1ccc(Cn2c(=O)sn(-c3ccccc3)c2=O)cc1)OCc1ccc2cccc(O)c2n1"
endpoint_result = "1.92 µM"

[[record]]
compound = "c1ccc2c(c1)c1c(n2CCOCCN2CCOCC2)CCCC1"
endpoint_result = "> 100 µM"

[[record]]
compound = "CCOC(=O)NC(=O)c1cn(C2CCCCC2)c(=O)[nH]c1=O"
endpoint_result = "> 100 µM"

[[record]]
compound = "CSC(=Nc1ccccc1)N(c1ccccc1)c1nc(=[N+](C)C)ss1"
endpoint_result = "28.3 µM"

[[record]]
compound = "CN(Cc1ccccc1)c1cc(=O)n(C)c(=O)[nH]1"
endpoint_result = "> 100 µM"

[[record]]
compound = "CCC1=NC(C(F)(F)F)(C(F)(F)F)N=C(N2CCOCC2)O1"
endpoint_result = "> 100 µM"

[[record]]
compound = "COC(=O)c1c2c(cc3c1CCC3)CCC2"
endpoint_result = "> 100 µM"


---

Test system: IGROV1 ovarian
Assay summary: NCI tumour cell line growth inhibition, 48 h
Measured attribute: GI50

[[record]]
chemical_smiles = "O=C(NCc1ccc(Cn2c(=O)sn(-c3ccccc3)c2=O)cc1)OCc1ccc2cccc(O)c2n1"
endpoint_result = "0.596 µM"

[[record]]
chemical_smiles = "C=CC(=O)N1CN(C(=O)C=C)CN(C(=O)C=C)C1"
endpoint_result = "3.34 µM"

[[record]]
chemical_smiles = "Cc1cc(N/N=C/c2ccccn2)nc2ccccc12"
endpoint_result = "0.356 µM"

[[record]]
chemical_smiles = "COc1cc2cc(Oc3ccc(NC(=O)c4cc(C(F)(F)F)cc(C(F)(F)F)c4)cc3)c(C)nc2cc1OC"
endpoint_result = "4.63 µM"

[[record]]
chemical_smiles = "N=C(N)c1ccc(-c2ccc(-c3cccs3)s2)cc1"
endpoint_result = "1.84 µM"

[[record]]
chemical_smiles = "CCc1ccc2c(c1)C(=O)c1c-2n(CCCN=[N+]=[N-])c(=O)c2cc([N+](=O)[O-])ccc12"
endpoint_result = "> 50 µM"

[[record]]
chemical_smiles = "O=C(/C(=C\\c1c(-c2ccccc2)[nH]c2ccccc12)S(=O)(=O)c1ccccc1)c1ccccc1"
endpoint_result = "> 100 µM"

[[record]]
chemical_smiles = "COC(=O)c1cc2c(o1)-c1nccc3c1c(nc1ccccc13)C2=O"
endpoint_result = "1.4 µM"

[[record]]
chemical_smiles = "ClCCN(CCCl)c1ccc(CNc2ccccc2)cc1"
endpoint_result = "16 µM"

[[record]]
chemical_smiles = "CC1(C)CN=C(NN=C(/C=C/c2ccc(C(F)(F)F)cc2)/C=C/c2ccc(C(F)(F)F)cc2)NC1"
endpoint_result = "1.44 µM"


---

Listed here are compounds together with their documented TGI.
System: MDA-MB-231 breast
Assay summary: NCI tumour cell line growth inhibition, 48 h
Measured attribute: TGI

[[record]]
compound = "CC[n+]1[b-](C(C)(C)C)n(/N=C/C(C)(C)C)[b-](C(C)(C)C)[n+]1CC"
experimental_system = "MDA-MB-231 breast"
endpoint_result = "> 100 µM"

[[record]]
compound = "O=C(NCc1ccc(Cn2c(=O)sn(-c3ccccc3)c2=O)cc1)OCc1ccc2cccc(O)c2n1"
experimental_system = "MDA-MB-231 breast"
endpoint_result = "2.55 µM"

[[record]]
compound = "O=c1ccn(C2OC(CO)C(P(=O)(O)O)C2O)c(=O)[nH]1 (stereo not given)"
experimental_system = "MDA-MB-231 breast"
endpoint_result = "> 100 µM"

[[record]]
compound = "NCCNCC1CCNCC1"
experimental_system = "MDA-MB-231 breast"
endpoint_result = "> 100 µM"

[[record]]
compound = "COc1ccc(C(CC(=O)c2ccc3c(c2)OCO3)c2c(O)c3ccccc3oc2=O)cc1OC (stereo not given)"
experimental_system = "MDA-MB-231 breast"
endpoint_result = "> 100 µM"


---

Tested on: NCI-H522 lung
Assay summary: NCI tumour cell line growth inhibition, 48 h
Listed here are compounds together with their documented TGI.
Measured attribute: TGI (µM)

[[record]]
compound = "ClC(Cl)=C1C(=C(Cl)Cl)C(Cl)(Cl)C1(Cl)Cl"
measurement_qualifier = "="
endpoint_result = 0.304

[[record]]
compound = "CC(=O)OCC1OC(n2cc(I)c(=O)[nH]c2=O)C(OC(C)=O)C(OC(C)=O)C1OC(C)=O (stereo not given)"
measurement_qualifier = ">"
endpoint_result = 100

[[record]]
compound = "N#CC(N=Nc1ccc(Cl)cc1)c1nc2ccccc2o1 (stereo not given)"
measurement_qualifier = "="
endpoint_result = 81.1

[[record]]
compound = "O=C(Nc1ccccc1F)c1cc2ccc(O)cc2oc1=Nc1ccccc1F"
measurement_qualifier = "="
endpoint_result = 3.09

[[record]]
compound = "C[C@]12CC[C@@H]3c4ccc(O)cc4CC[C@H]3[C@@H]1C/C(=C\\c1ccncc1)[C@@H]2O"
measurement_qualifier = "="
endpoint_result = 20.1

[[record]]
compound = "N/C(=N\\S(=O)(=O)c1c(C(F)(F)F)cccc1C(F)(F)F)Nc1ccc(Cl)cc1"
measurement_qualifier = "="
endpoint_result = 30.6

[[record]]
compound = "Nc1nc(N)c(N=O)c(Nc2ccc(Br)cc2)n1"
measurement_qualifier = ">"
endpoint_result = 100

[[record]]
compound = "COC(=O)/C(=N/O)C(C(=O)C=C(C)C)C(=O)C(=O)Nc1nc2ccc([N+](=O)[O-])cc2s1 (stereo not given)"
measurement_qualifier = ">"
endpoint_result = 100

[[record]]
compound = "CCC/C=C/C=C/C1CC(O)C(O)C(=O)C1CO (stereo not given)"
measurement_qualifier = ">"
endpoint_result = 100

[[record]]
compound = "CC(=O)N1CCN(c2ccc(OCC3COC(Cn4ccnc4)(c4ccc(Cl)cc4Cl)O3)cc2)CC1 (stereo not given)"
measurement_qualifier = "="
endpoint_result = 99.7


---

System: OVCAR-4 ovarian
Assay summary: NCI tumour cell line growth inhibition, 48 h
Listed here are compounds together with their documented GI50.
Measured attribute: GI50

[[record]]
chemical_smiles = "O=C(Nc1cc(Nc2ncccc2-c2ncnc3nc[nH]c23)ccc1F)c1cc(C(F)(F)F)cc(C(F)(F)F)c1"
endpoint_result = "1.57 µM"

[[record]]
chemical_smiles = "N[C@H](CCC(=O)N[C@@H](Cc1c[nH]c2ccccc12)C(=O)O)C(=O)O"
endpoint_result = "> 100 µM"

[[record]]
chemical_smiles = "N#CCCN1C/C(=C/c2ccc(Br)cc2)C(=O)/C(=C/c2ccc(Br)cc2)C1"
endpoint_result = "2.69 µM"

[[record]]
chemical_smiles = "O=C(Nc1cc(Cl)ccc1O)c1ccc(Nc2ccnc(C(F)(F)F)c2)cc1"
endpoint_result = "3.56 µM"

[[record]]
chemical_smiles = "COc1cccc(/C=N/[N-]C(=O)c2ccncc2)c1[O-].COc1cccc(/C=N/[N-]C(=O)c2ccncc2)c1[O-].[O]=[U](=[O])([OH2+])[OH2+]"
endpoint_result = "> 34.2 µM"


---

Tested on: OVCAR-4 ovarian
Assay summary: NCI tumour cell line growth inhibition, 48 h; in the data active means GI50 below about 0.43 µM; inactive means the rest
Classes used: active, inactive

[[record]]
chemical_smiles = "Nc1cc2c(cc1Br)[nH]c(=O)c1ccccc12"
group = "inactive"

[[record]]
chemical_smiles = "c1ccc2c(c1)[nH]c1c2cc[n+]2cc3c(cc12)CCCC3"
group = "inactive"

[[record]]
chemical_smiles = "Cc1cc(Nc2nc(-c3cn(-c4ccc(Cl)cc4)nn3)nc3ccccc23)n[nH]1"
group = "inactive"

[[record]]
chemical_smiles = "CC1(C)CN=C(NN=C(/C=C/c2ccc(C(F)(F)F)cc2)/C=C/c2ccc(C(F)(F)F)cc2)NC1"
group = "inactive"

[[record]]
chemical_smiles = "Cc1ccc(OCCOCCOCCOCCOc2ccc(C)n(O)c2=S)c(=S)n1O"
group = "active"


---

Tested on: OVCAR-3 ovarian
Assay summary: NCI tumour cell line growth inhibition, 48 h; in the data active = GI50 below about 0.43 µM; inactive = the rest
Classes used: active, inactive

[[record]]
molecule = "COc1ccc(-c2nccn2-c2ccc(OC)cc2)cc1"
experimental_system = "OVCAR-3 ovarian"
group = "inactive"

[[record]]
molecule = "O=C1CCCN1c1ccccc1I(=O)=O"
experimental_system = "OVCAR-3 ovarian"
group = "inactive"

[[record]]
molecule = "C=CC(=O)N1CN(C(=O)C=C)CN(C(=O)C=C)C1"
experimental_system = "OVCAR-3 ovarian"
group = "inactive"

[[record]]
molecule = "c1coc(-c2c3ccc(=[N+]4CCCCC4)cc-3oc3cc(N4CCCCC4)ccc23)c1"
experimental_system = "OVCAR-3 ovarian"
group = "active"

[[record]]
molecule = "NNCCc1ccc(NC(=O)CCCc2ccc(C(=O)Nc3ccccc3N)cc2)cc1"
experimental_system = "OVCAR-3 ovarian"
group = "inactive"

[[record]]
molecule = "Nc1ccccc1O.O.O=C(O)C1[O][Sb][O]C1C(=O)O (stereo unspecified)"
experimental_system = "OVCAR-3 ovarian"
group = "inactive"

